Recorded Relative Binding (hCNTF = 1) by entry
Target: T1, CNTF receptor-α (CNTFRα) (UniProt P26992 23-342, limits assumed)
T1 construct: also called CNTFRa; CNTF a-receptor
T1 sequence (looked up): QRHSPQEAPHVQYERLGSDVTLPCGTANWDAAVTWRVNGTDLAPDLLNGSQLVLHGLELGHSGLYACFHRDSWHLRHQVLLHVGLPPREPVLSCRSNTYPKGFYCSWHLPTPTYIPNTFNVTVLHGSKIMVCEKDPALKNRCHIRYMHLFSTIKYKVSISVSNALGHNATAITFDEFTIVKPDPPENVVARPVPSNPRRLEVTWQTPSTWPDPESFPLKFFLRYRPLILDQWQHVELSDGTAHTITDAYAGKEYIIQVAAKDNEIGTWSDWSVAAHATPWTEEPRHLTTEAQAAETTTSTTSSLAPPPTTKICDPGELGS
Assay: solid phase binding assay on CNTFRα

INSERT INTO results (binder, result) VALUES
  ('hCNTF (human ciliary neurotrophic factor), wild type (ligand, also called human CNTF) MAFTEHSPLTPHRRDLCSRSIWLARKIRSDLTALTESYVKHQGLNKNINLDSADGMPVASTDQWSELTEAERLQENLQAYRTFHVLLARLLEDQQVHFTPTEGDFHQAIHTLLLQVAAFAYQIEELMILLEYKIPRNEADGMPINVGDGGLFEKKLWGLKVLQELSQWTVRSIHDLRFISSHQTGIPARGSHYIANNKKM', '1.1 relative (hCNTF = 1)');

Consider now this further binder.
Quick one: Relative Binding (hCNTF = 1) of (Ser166Asn/Gln167Ala) hCNTF (ligand) MAFTEHSPLTPHRRDLCSRSIWLARKIRSDLTALTESYVKHQGLNKNINLDSADGMPVASTDQWSELTEAERLQENLQAYRTFHVLLARLLEDQQVHFTPTEGDFHQAIHTLLLQVAAFAYQIEELMILLEYKIPRNEADGMPINVGDGGLFEKKLWGLKVLQELNAWTVRSIHDLRFISSHQTGIPARGSHYIANNKKM ?
12.4 relative (hCNTF = 1)
